pIC50: −log10 of the molar value.
Parameter 'readout' = pIC50; parameter 'system' = TEAD1 protein (YAP Binding Domain) (Homo sapiens).
quantity name: pIC50

* C=CC(=O)Nc1ccc(OCC2CCC(F)(F)CC2)c2ccncc12 | < 5.70
* C=CC(=O)Nc1ccc(OCC2CCC(F)(F)CC2)cc1C#N | ≥ 6.60
* C=CC(=O)Nc1ccc(OCc2cnccc2Cl)c(F)c1 | < 5.70
* C=CC(=O)Nc1ccc(-c2ccc(C(C)(C)C)cc2)c2ncccc12 | 6.30 to 6.60
* C=CC(=O)Nc1ccc(OCC2CCC(C(F)(F)F)CC2)c(F)c1 (centres unmarked) | ≥ 6.60

###

Measured IC50 values are reported for all entries that follow.
Target: TEAD1 protein (YAP Binding Domain) (Homo sapiens, UniProt P28347)
Sequence (P28347 209-426 limits assumed): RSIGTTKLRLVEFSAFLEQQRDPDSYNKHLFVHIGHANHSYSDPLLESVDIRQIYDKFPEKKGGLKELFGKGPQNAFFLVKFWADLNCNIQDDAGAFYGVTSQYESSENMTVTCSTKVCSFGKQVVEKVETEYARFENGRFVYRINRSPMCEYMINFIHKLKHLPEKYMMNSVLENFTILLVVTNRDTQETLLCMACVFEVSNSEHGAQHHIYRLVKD
quantity name: IC50

- C=CC(=O)Nc1ccc(C2COc3ccccc3C2=O)c(F)c1 (centres unmarked): 500 to 2000 nM
- C=CC(=O)Nc1ccc(OCc2cccc(F)c2)c2c1CCCO2: > 2000 nM
- C=CC(=O)Nc1ccc(OCC2CCC(F)(F)CC2)c2[nH]cnc12: 500 to 2000 nM
- C=CC(=O)Nc1cc2nc(Cc3ccc(F)cc3)oc2cc1F: 500 to 2000 nM
- C=CC(=O)Nc1ccc(OCc2ccc(Cl)nc2)c(F)c1: 500 to 2000 nM
- Fc1cc(-c2nnn[nH]2)ccc1OCC1CCC(F)(F)CC1: 500 to 2000 nM
- C=CC(=O)Nc1ccc(COc2cccc(C(F)(F)F)c2)c(F)c1: ≤ 250 nM
- CS(=O)(=O)Nc1ccc(OCC2CCC(F)(F)CC2)c(F)c1: 500 to 2000 nM
- C=CC(=O)Nc1ccc2c(c1)NCC(c1cccc(F)c1)O2 (centres unmarked): > 2000 nM
- C=CC(=O)Nc1ccc(OCc2cnc(C)s2)c(F)c1: > 2000 nM
- C=CC(=O)Nc1ccc(OCc2cccc(F)c2)c(F)c1: 250 to 500 nM
- C=CC(=O)Nc1ccc(OCC2CCC(F)(F)CC2)c2ocnc12: ≤ 250 nM
- C=CC(=O)Nc1ccc(OCc2cccc(F)c2)cc1C: 500 to 2000 nM
- C=CC(=O)Nc1ccc(OCc2cccc(F)c2)cc1CC(N)=O: > 2000 nM
- C=CC(=O)Nc1ccc2oc(CCCC(C)C)nc2c1F: 250 to 500 nM
- C=CC(=O)Nc1cc2nc(CCC(F)(F)C(F)(F)F)oc2cc1F: ≤ 250 nM
- C=CC(=O)Nc1ccc(OCc2cc(F)cc(F)c2)c(F)c1: 250 to 500 nM
- C=CC(=O)Nc1ccc(CCc2cccc(F)c2)c(F)c1: ≤ 250 nM
- C=CC(=O)Nc1ccc(OCc2cccc(F)c2Cl)c(C#N)c1: 250 to 500 nM
- C=CC(=O)Nc1ccc2c(c1)OC(c1cccc(C(F)(F)F)c1)O2 (centres unmarked): ≤ 250 nM

###

Parameter 'readout' = pIC50; parameter 'system' = TEAD1 protein (YAP Binding Domain) (Homo sapiens, UniProt P28347).
pIC50: −log10 of the molar value.
quantity name: pIC50

• C=CC(=O)Nc1ccc(C(=O)Nc2cccc(F)c2)c(F)c1 = < 5.70
• C=CC(=O)Nc1ccc(OCC2CCCCC2)c(F)c1 = ≥ 6.60
• C=CC(=O)Nc1ccc(OC(C)c2cccc(C(F)(F)F)c2)c(F)c1 (stereo not drawn) = ≥ 6.60
• C=CC(=O)Nc1cc2nc(CC3CCC(F)(F)CC3)oc2cc1F = 6.30 to 6.60
• C=CC(=O)Nc1ccc(OC(C)c2cccc(F)c2)c(F)c1 (stereo not drawn) = 6.30 to 6.60
• C=CC(=O)Nc1ccc(OCc2cncc(C(F)(F)F)c2)c(F)c1 = 6.30 to 6.60
• C=CC(=O)Nc1ccc(OCc2cccc(F)c2)cc1C1CC1 = 6.30 to 6.60
• C=CC(=O)Nc1ccc(COc2cccc(F)c2)c(F)c1 = 6.30 to 6.60
• C=CC(=O)Nc1ccc(OCc2cccc(C#N)c2)c(F)c1 = 5.70 to 6.30

Data credit: patent US20230115350A1
